# Test system: Pseudomonas aeruginosa
# test: Antimicrobial activity against Pseudomonas aeruginosa assessed as inhibition of microbial growth after 24 hrs
# Format: functional
The source made the active and inactive calls. The calls are words filed in the database; no cut-off is given here.
measurement_label: MIC

Below, 4 molecules whose answers are already recorded.
[[record]]
molecule = "CC[C@H](C)[C@H]1CN(CCCC[C@H]2CNC(=N)N2CC2CCC(C)CC2)C(=N)N1 (stereo partly drawn)"
target_or_system = "Pseudomonas aeruginosa"
result = "inactive"

[[record]]
molecule = "CCC[C@@H]1CN(CCCC[C@H]2CNC(=N)N2CC2CCC(C)CC2)C(=N)N1CCc1cccc(C)c1 (stereo partly drawn)"
target_or_system = "Pseudomonas aeruginosa"
result = "inactive"

[[record]]
molecule = "CCC[C@@H]1CN(CCCC[C@H]2CNC(=N)N2CC2CCCCC2)C(=N)N1CC(C)CC (stereo partly drawn)"
target_or_system = "Pseudomonas aeruginosa"
result = "inactive"

[[record]]
molecule = "CCCCCCCN1C(=N)N(CCCC[C@H]2CNC(=N)N2CCc2cccc(C(F)(F)F)c2)C[C@@H]1CCCC"
target_or_system = "Pseudomonas aeruginosa"
result = "1.6 µM"


Note down MIC recorded for CCC[C@@H]1CN(CCCC[C@H]2CNC(=N)N2CC2CCC(C)CC2)C(=N)N1 (stereo partly drawn)
inactive

Note down MIC recorded for CCC[C@@H]1CN(CCCC[C@H]2CNC(=N)N2CC2CCC(C)CC2)C(=N)N1CC(C)CC (stereo partly drawn)
inactive

Note down MIC recorded for CCCCCCCN1C(=N)N(CCCC[C@H]2CNC(=N)N2CCC23C[C@H]4C[C@@H](C2)C[C@@H](C3)C4)C[C@@H]1CCCC
1.7 µM

Note down MIC recorded for CC[C@H](C)[C@H]1CN(CCCC[C@H]2CNC(=N)N2CC2CCCCC2)C(=N)N1
inactive
